Test system: HeLa
run.description: Cytotoxicity against human HeLa cells after 48 hrs by MTT assay
Format: functional, cell-based
readout.name: IC50 (µM)

- C=C(C)[C@@]12OC3(c4ccccc4)O[C@@H]1[C@@H]1[C@H](O)[C@](O)(CO)[C@@H](O)[C@]4(O)C(=O)[C@@H](C)C=C4[C@@]1(O3)[C@H](C)[C@H]2OC(=O)c1ccccc1: 24.8
- C=C(C)[C@@]12O[C@@]3(c4ccccc4)O[C@@H]1[C@@H]1[C@@H]4O[C@]4(CO)[C@@H](O)[C@]4(O)C(=O)C(C)=C[C@H]4[C@@]1(O3)[C@H](C)[C@H]2OC(C)=O: 42.4
- C=C(C)[C@]12C[C@@H](C)[C@@]34OC5(CCCCCCC[C@H](C)[C@H]6[C@H](C)[C@H](OC(=O)c7ccccc7)[C@@](O)([C@H](O)[C@@]7(CO)O[C@H]7[C@H]3[C@H]1O5)[C@@H]64)O2 [PIMELEA FACTOR P2]: 18.3
- C=C(C)[C@@]12OC3(/C=C/C=C/CCCCC)O[C@@H]1[C@@H]1[C@@H]4O[C@]4(CO)[C@@H](O)[C@]4(O)C(=O)C(C)=C[C@H]4[C@@]1(O3)[C@H](C)[C@H]2OC(=O)CC: 25.5
- C=C(C)[C@@]12O[C@@]3(c4ccccc4)O[C@@H]1[C@@H]1[C@@H]4O[C@]4(CO)[C@@H](O)[C@]4(O)C(=O)C(C)=C[C@H]4[C@@]1(O3)[C@H](C)[C@H]2OC(=O)c1ccccc1: 19.1
- C=C(C)[C@@]12O[C@@]3(c4ccccc4)O[C@@H]1[C@@H]1[C@@H]4O[C@]4(CO)[C@@H](O)[C@]4(O)C(=O)[C@@H](C)C[C@H]4[C@@]1(O3)[C@H](C)[C@H]2OC(C)=O: 50
- C=C(C)[C@]1(O)C[C@@H](C)[C@@]2(O)[C@H]([C@H]1OC(=O)c1ccccc1)[C@H](O)[C@](O)(COC(=O)/C=C/C=C/CCCCC)[C@@H](O)[C@@]1(O)[C@H]2C[C@H](C)[C@@H]1O: 21.1
- C=C(C)[C@@]12O[C@@]3(/C=C/C=C/CCCCC)O[C@@H]1[C@@H]1[C@@H]4O[C@]4(CO)[C@@H](O)[C@]4(O)C(=O)C(C)=C[C@H]4[C@@]1(O3)[C@H](C)[C@H]2OC(C)=O: 17.1
- C=C(C)[C@]12C[C@@H](C)[C@@]34O[C@@]5(CCCCCCC[C@@H](C)[C@H]6[C@H](C)C(=O)[C@@](O)([C@H](O)[C@@]7(CO)O[C@H]7[C@H]3[C@H]1O5)[C@@H]64)O2 [WIKSTROELIDE E]: 17.1
